Source of measurements: the supplement of paper PMC12645437

Target: T1, CRBN, Q96SW2;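 note: pooled lentiviral library of zinc finger degron-EGFP fusions in mCherry-positive Jurkat cells, FACS-sorted after compound exposure, with degron abundance counted by next-generation sequencing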
T1 chain: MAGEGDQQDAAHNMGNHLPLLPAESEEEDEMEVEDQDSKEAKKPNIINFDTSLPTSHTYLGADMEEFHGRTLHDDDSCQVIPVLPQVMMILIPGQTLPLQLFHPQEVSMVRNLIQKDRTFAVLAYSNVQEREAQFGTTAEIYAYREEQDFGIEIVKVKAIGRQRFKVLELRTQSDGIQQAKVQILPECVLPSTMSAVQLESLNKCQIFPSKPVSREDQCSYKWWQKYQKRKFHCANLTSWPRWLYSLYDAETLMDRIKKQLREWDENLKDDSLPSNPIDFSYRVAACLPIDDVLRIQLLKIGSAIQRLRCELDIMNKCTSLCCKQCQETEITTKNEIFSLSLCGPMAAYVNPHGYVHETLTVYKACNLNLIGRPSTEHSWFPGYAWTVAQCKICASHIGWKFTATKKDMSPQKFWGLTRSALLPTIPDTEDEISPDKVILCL
Assay: log2 fold change of degron read counts, EGFP-low vs EGFP+ sorted cells (limma voom), compound-induced degradation; higher = more compound-induced degradation of the degron-EGFP fusion; degrons are variants of IKZF1/3 zinc finger 2; compound dose not given here
Details: Jurkat; 18 h; compound: thalidomide
Over roughly 8,300 sequences, “log2 fold change of degron read counts, EGFP-low vs EGFP+ sorted cells (limma voom), compound-induced degradation” has its median near -1.1; the highest 2% begin near 3.2. The sample holds the highest values, similar sequences and a random draw of the others, so the mix is not that of the screen.
Listing of entries alongside the reported log2 fold change of degron read counts.

| Record sequence | log2 fold change of degron read counts |
| --- | --- |
| LVCNQCGFTCTQKGNLLRHIKL [46L_47V_49N_50Q_52G_53F_54T_55C_67L_, Q9UKT9] | -1.21 |
| LKCEICGFSCTQKGNLLRHIKL [46L_47K_49E_50I_52G_53F_54S_55C_67L_, Q9UKT9] | 0.762 |
| FICPICGANFTQKGNLLRHIKL [46F_47I_49P_50I_52G_53A_54N_55F_67L_, Q9UKT9] | 2.63 |
| FACPICGANFTQKGNLLRHIKL [46F_47A_49P_50I_52G_53A_54N_55F_67L_, Q9UKT9] | 1.07 |
| FHCEICGAGFTQKGNLLRHIKL [46F_47H_49E_50I_52G_53A_54G_55F_67L_, Q9UKT9] | -0.622 |
| FVCNQCGHNFTQKGNLLRHIKL [46F_47V_49N_50Q_52G_53H_54N_55F_67L_, Q9UKT9] | -3.15 |
| FNCEICGAGFTQKGNLLRHIKL [46F_47N_49E_50I_52G_53A_54G_55F_67L_, Q9UKT9] | -0.254 |
